Examples of molecules with documented IC50 follow.
Target: PPO AMATU WT (SEQ ID NO: 1) (Amaranthus tuberculatus)
Experiment: PPO enzyme assay (recombinant)
Format: biochemical
Settings: 150 μM Protogen, molar concentration for 50% enzyme inhibition
Report only the number, with the unit nM understood.

{"MOLECULE": "COC(=O)C(OC)Oc1ccccc1Oc1cc(-n2c(=O)cc(C(F)(F)F)n(C)c2=O)c(F)cc1Br (stereo not drawn)", "READOUT_UNITS": "nM", "IC50": 0.716}
{"MOLECULE": "COC(Oc1ccccc1Oc1cc(-n2c(=O)cc(C(F)(F)F)n(C)c2=O)c(F)cc1Br)C(=O)O (stereo not drawn)", "READOUT_UNITS": "nM", "IC50": 0.183}

Consider the molecule CCOC(=O)C(OC)Oc1ccccc1Oc1cc(-n2c(=O)cc(C(F)(F)F)n(C)c2=O)c(F)cc1Br (stereo not drawn) and give its measured IC50. 0.323
